# ASSAY EXPLANATION: Quantitative high throughput screen for delayed death inhibitors of the malarial parasite plastid, 48 hour incubation (AID 488752); further: nearly all actives have a fitted effect of over 65% in size
# CONDITION DESCRIPTION: Plasmodium falciparum growth; series mostly up to 28.7 µM
Records with an inconclusive call do not appear. Calls of active or inactive are those of the source. The call rests on the fitted dose curve; in most records, active means well fitted inhibition curve with a large enough effect; inconclusive means small, poorly fitted or top-dose-only effect, or effect the other way; inactive means flat fitted curve, though single readings scatter.
Output constraint: value belongs to active, inactive

Consider the following illustrative entries.
COMPOUND	CLASS ASSIGNMENT
COc1ccc(-c2ccc(N)[n+](CCCC(=O)O)n2)cc1	inactive
N[C@@H](CCCC(=O)O)C(=O)O	inactive
COc1ccccc1N1CCN(CCCCNC(=O)c2ccc3ccccc3c2)CC1	active
CC(=O)[C@H]1CCC2C3CC=C4C[C@@H](OS(=O)(=O)O)CC[C@]4(C)C3CC[C@@]21C (some centres not stated)	inactive
C=C1C(=O)O[C@@H]2[C@H]3O[C@]3(C)CCC=C(C)CC[C@@H]12	inactive

Please indicate how the test categorized O=C(O)[C@H]1NCCC[C@H]1C(=O)O .
inactive

Identify the outcome logged in this assay for the compound shown: O=C(O)c1ccccc1Nc1ccccc1
inactive

Dear colleague, could you share the recorded outcome for Nc1ncnc2c1c(-c1ccc(Oc3ccccc3)cc1)cn2C1CCCC1 when you have a moment?
active

Entry NCCCNCCCCNCCCN : call = ?
inactive

Could you kindly confirm the outcome this assay logged for Cc1cccc(C2CN(C)CCc3c2cc(O)c(O)c3Cl)c1 (configuration not stated) ?
inactive

Which result was noted for this compound in the test: Cc1nc(N=Nc2ccc(C(=O)O)cc2)c(COP(=O)(O)O)c(C=O)c1O
inactive

So what was the verdict on NCCCCN=C(N)N in this test?
inactive

###

# ASSAY EXPLANATION: NFAT Signaling Pathway (AID 444);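 further: carbachol stimulus at about its EC50 of 1 µM final; on the % scale 0 is the no-effect control and ±100 the full control effect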
# CONDITION DESCRIPTION: Jurkat NFAT-bla M1, carbachol, beta-lactamase ratio, 5 h; at 38 µM (top of the series) unless noted
# Method: NCGC Assay Overview: The nuclear factor of activated T cells (NFAT) family of transcription factors has been found primarily in most immune system cells and some other non-immune cells. NFAT plays the immunomodulatory role, primarily in T-cell activation and differentiation. […] NCGC Assay Protocol Summary: The cells were prepared in RPMI 1640 medium containing 0.1% dialyzed FBS and 25 mM HEPES at 1.6 x 10^6cell/ml. […] The %Activity was determined from the ratio of 460nm/530nm. […]
Results filed as inconclusive are left out.
RECORDED ENDPOINT: activity change, negative = inhibition (%)
Entry rule: numbers only, all in %.

Entry under test: O=c1[nH]ccc2c(O)cccc12 . Its activity change, negative = inhibition was -6.89

Per the records, this compound ( Nn1nnc2ccccc21 ) has activity change, negative = inhibition equal to 4.59

Measured activity change, negative = inhibition, NCCCCN=C(N)N : -4.07

Looking up O=c1cc(-c2ccccc2)[nH]c2nc(Cl)ccc12 , I see its activity change, negative = inhibition listed as -13

The compound identified as C=CC[C@H](N)C(=O)O registered its activity change, negative = inhibition at 2.66

Documented activity change, negative = inhibition of CCCCCCCCCCCCCCC[C@H](O)[C@H](N)CO : 0.212

###

# STUDY TARGET: DNA polymerase III PolC-type (Bacillus subtilis (strain 168))
# ASSAY EXPLANATION: qHTS Validation Assay for the Inhibitors of DNA Replication in Gram-Positive Bacteria (AID 485295);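 further: reconstituted holoenzyme with PolC plus beta clamp SSB and primase; PicoGreen fluorescence of double-stranded DNA made on primed circular M13 template; 0% = DMSO wells and -100% = EDTA-quenched background wells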
# CONDITION DESCRIPTION: Gram-positive bacterial DNA replication assay; series mostly up to 57.1 µM
Active and inactive are the calls of the source. The call rests on the fitted dose curve; in most records, active means well fitted inhibition curve with a large enough effect; inconclusive means small, poorly fitted or top-dose-only effect; inactive means flat fitted curve, though single readings scatter.
RECORDED ENDPOINT: outcome

COMPOUND	outcome
c1ccc2c(c1)CC(N1CCN(c3cccc4c3OCCO4)CC1)C2	inactive
O=C(O)CCC/C=C\C[C@@H]1[C@@H](/C=C/[C@H](O)C2Cc3ccccc3C2)[C@@H](F)C[C@@H]1O	inactive
C=C(C)C1CC=C(C(=O)O)CC1 (configuration not stated)	inactive
CNC(=O)c1cc2c(cn1)[nH]c1ccccc12	inactive
COc1ccc(-c2cc3ncc(C)n3c(Nc3ncccc3C(N)=O)n2)cc1OC	inactive

Reported outcome ( CCCCCCC(=O)OC1CC(C)(C)NC(C)(C)C1 ) = inactive

Notebook: NC(N)=N[C@@H](CCC(=O)O)C(=O)O , outcome read as inactive

###

# ASSAY EXPLANATION: Primary qHTS for inhibitors of La Crosse Virus (LACV) - induced cell death in SH-SY5Y cells (AID 1508616)
# CONDITION DESCRIPTION: SH-SY5Y LACV cytopathicity rescue, ATP luminescence, 6 d; series mostly up to 9.63 µM
Inconclusive results are not listed. The source made the active and inactive calls. Calls follow the shape of the dose curve; as a rule, active = well fitted inhibition curve with a large enough effect; inconclusive = small, poorly fitted or top-dose-only effect; inactive = no such curve, though single readings can be large or run the other way.
Thanks in advance; please answer with one of these: active, inactive

Observe how each entry below is paired with its result.
COMPOUND	CLASS ASSIGNMENT
CC(N)(Cc1ccc(O)c(O)c1)C(=O)O (configuration not stated)	inactive
COc1cc(CC(=O)O)ccc1O	inactive
O=C(O)C1=CCCN(CCON=C(c2ccccc2)c2ccccc2)C1	inactive

Status in this test for O=C(N[C@@H](Cc1ccccc1)C(=O)CCl)OCc1ccccc1 ?
active

// outcome(item) with item = COc1ccccc1N1CCN(CCCCNC(=O)c2ccc3ccccc3c2)CC1
inactive

Dear all, I need the recorded test outcome for NC(=O)c1cc[n+](CC2=C(C(=O)O)N3C(=O)[C@@H](NC(=O)[C@@H](c4ccccc4)S(=O)(=O)[O-])[C@H]3SC2)cc1 , thank you.
inactive

###

# Test system: GB4
# ASSAY EXPLANATION: qHTS profiling for inhibitors of Plasmodium falciparum proliferation (AID 504749); further: nearly all actives have a fitted effect of over 60% in size
# CONDITION DESCRIPTION: P. falciparum in erythrocytes, SYBR Green DNA, 72 h; series mostly up to 28.7 µM
Records with an inconclusive call do not appear. The source made the active and inactive calls. Calls follow the shape of the dose curve; as a rule, active = well fitted inhibition curve with a large enough effect; inconclusive = small, poorly fitted or top-dose-only effect; inactive = flat fitted curve, though single readings scatter.
Hi there, use one of these labels in your reply, thanks! active, inactive

COMPOUND	CLASS ASSIGNMENT
CC(O)C(O)[C@H]1CNc2nc(N)[nH]c(=O)c2N1 (some centres undefined)	inactive
c1ccc(C2CN3CCSC3=N2)cc1 (centres undefined)	active

// return assay outcome for CCCCCCCCCCCCCCCCCCOC[C@H](COP(=O)([O-])OCC[N+](C)(C)C)OC
inactive

Check the results log: what was the call for CCCCCCCCCCCCCCC[C@H](O)[C@H](N)CO ?
inactive

###

# STUDY TARGET: Single-stranded DNA cytosine deaminase (Homo sapiens) (UniProt Q9GZX7)
# Sequence (Q9GZX7 whole entry, looked up): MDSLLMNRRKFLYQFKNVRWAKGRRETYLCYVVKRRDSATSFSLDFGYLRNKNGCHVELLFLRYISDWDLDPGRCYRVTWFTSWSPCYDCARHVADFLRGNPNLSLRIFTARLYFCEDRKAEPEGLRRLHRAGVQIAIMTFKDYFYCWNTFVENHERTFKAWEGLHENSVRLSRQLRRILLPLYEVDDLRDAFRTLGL
# ASSAY EXPLANATION: Validation qHTS assay for inhibitors of Activation Induced Cytidine Deaminase (AID): AID signal (AID 1347429); further: on the % scale 0 is the no-effect control and ±100 the full control effect
# CONDITION DESCRIPTION: Recombinant AID, FRET ssDNA deamination with UDG, fluorescence; series mostly up to 115 µM
Activity calls are given as the source filed them. Calls come from the whole dose curve; as a rule, active = well fitted inhibition curve with a large enough effect; inconclusive = small, poorly fitted or top-dose-only effect; inactive = no such curve, though single readings can be large or run the other way.
RECORDED ENDPOINT: outcome

Example compounds with recorded outcome:
COMPOUND	REPORTED RESULT
O=C(O)/C=C/c1cnc[nH]1	inactive
CN(C)CCC(c1ccc(Br)cc1)c1ccccn1 (configuration not stated)	inactive
Cc1nc(N=Nc2cc(S(=O)(=O)O)c3cc([N+](=O)[O-])cc(S(=O)(=O)O)c3c2)c(COP(=O)(O)O)c(C=O)c1O	inactive
CSC(N)=NCCC[C@H](N)C(=O)O	inactive
Nn1nnc2ccccc21	inactive
O=C(O)c1ccccc1Nc1cccc(OCc2ccc3ccccc3n2)c1	inactive
C/C(=C\c1ccc(C(=O)O)cc1)c1ccc2c(c1)C(C)(C)CCC2(C)C	inactive
COc1ccccc1N1CCN(CCN(C(=O)c2ccc(F)cc2)c2ccccn2)CC1	inactive
CN1CCc2cc(Cl)c(O)cc2[C@@H](c2ccccc2)C1	inactive
NCC(O)(CS(=O)(=O)O)c1ccc(Cl)cc1 (configuration not stated)	inactive

The compound N[C@@H](CS(=O)O)C(=O)O showed outcome equal to inactive

outcome in this record for Cn1cc(C(F)(F)F)nc1-c1ccc(OCC(O)CNCCOc2ccc(O)c(C(N)=O)c2)cc1 (configuration not stated) : inactive

###

Reported activity is given for each of the following compounds.
# STUDY TARGET: Catechol O-methyltransferase (Homo sapiens) (UniProt P21964)
# Sequence (P21964 whole entry, looked up): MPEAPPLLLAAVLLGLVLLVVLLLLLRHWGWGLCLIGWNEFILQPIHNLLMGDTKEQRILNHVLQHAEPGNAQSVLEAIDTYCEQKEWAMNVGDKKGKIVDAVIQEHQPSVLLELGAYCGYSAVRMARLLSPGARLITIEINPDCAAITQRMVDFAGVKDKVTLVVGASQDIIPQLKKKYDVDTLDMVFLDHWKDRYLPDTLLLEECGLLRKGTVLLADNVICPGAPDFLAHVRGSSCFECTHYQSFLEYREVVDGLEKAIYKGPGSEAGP
# ASSAY EXPLANATION: Confirmatory Screen for Target Class Profiling of Small Molecule Inhibitors of Methyltransferases (AID 1745852)
# CONDITION DESCRIPTION: MTase-Glo luminescence, SAH detection, recombinant enzyme; measured here: COMT max response; stronger effect = lower value
Report the figure in % without appending any unit label.

# example entries with known answers
COMPOUND	activity [%]
CCCc1c(-c2ccc(O)cc2)nn(-c2ccc(O)cc2)c1-c1ccc(O)cc1	-7.84
C[C@](Cc1ccc(O)c(O)c1)(NN)C(=O)O	156
Nc1ccc2c3c(cccc13)C(=O)NC2=O	1.42
CCCc1c(OCCCOc2ccc(OCC(=O)O)cc2)ccc(C(C)=O)c1O	14.3
C=CCN1CCc2c(cc(O)c(O)c2Cl)C(c2ccccc2)C1 (stereo unspecified)	72.4

Per the records, this compound ( CCCC[C@@]1(C2CCCC2)Cc2cc(OCC(=O)O)c(Cl)c(Cl)c2C1=O ) has activity equal to 8.39

// activity lookup, compound = O=C(O)C1=CC(=C(c2ccc(O)c(C(=O)O)c2)c2ccc(O)c(C(=O)O)c2)C=CC1=O , result: -24.2

# activity (compound: C=CCN1CCc2c(cc(O)c(O)c2Br)[C@@H](c2ccccc2)C1 ) is 62

Form field activity, entry O=c1[nH]ccc2c(O)cccc12 : 1.23

Entry under test: N=C(N)SCCc1cnc[nH]1 . Its activity was -3.06

Measured activity, CC[C@@H]1Cc2cc(O)ccc2C2=C1c1ccc(O)cc1C[C@H]2CC : 9.67

So, NC/C=C\C(=O)O ? Its activity was -3.77

Notebook: CN1Cc2sccc2C(c2ccc(O)c(O)c2)C1 (stereo unspecified) , activity read as 138
